- Test system: Escherichia coli TOP10;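 further: peptides expressed intracellularly from a pBAD plasmid library in pooled LB shake-flask culture, induced with 0.3% L-arabinose, DNA abundance read by NGS, three biological replicates, DESeq2 with apeglm shrinkage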
- method description: shrunken log2 fold change of peptide-encoding DNA abundance (4.5 h post-induction vs induction); higher = less antimicrobial activity (less host growth inhibition)
- condition set: time post-induction: 4.5 h; library: site-saturation at positions 5, 18, 19, 20
Class MET: shrunken log2 fold change at least -0.03. Class NOT MET: shrunken log2 fold change below -0.03.

[Q] Assess whether reported shrunken log2 fold change for RRIRNRPPRLPRPRPRPIFDPRP sits at -0.03 or higher.
[A] NOT MET

[Q] Assess whether reported shrunken log2 fold change for RRIRQRPPRLPRPRPRPFFAPRP sits at -0.03 or higher.
[A] MET

[Q] Assess whether reported shrunken log2 fold change for RRIRTRPPRLPRPRPRPGAAPRP sits at -0.03 or higher.
[A] MET

[Q] Assess whether reported shrunken log2 fold change for RRIRRRPPRLPRPRPRPWGKPRP sits at -0.03 or higher.
[A] MET

[Q] Assess whether reported shrunken log2 fold change for RRIRYRPPRLPRPRPRPRSMPRP sits at -0.03 or higher.
[A] NOT MET

[Q] Assess whether reported shrunken log2 fold change for RRIRYRPPRLPRPRPRPNLRPRP sits at -0.03 or higher.
[A] NOT MET

[Q] Assess whether reported shrunken log2 fold change for RRIRERPPRLPRPRPRPWGAPRP sits at -0.03 or higher.
[A] MET

[Q] Assess whether reported shrunken log2 fold change for RRIRKRPPRLPRPRPRPHIRPRP sits at -0.03 or higher.
[A] MET
